Target: HCV NS3/4A 1b protease D168A (Hepatitis C virus genotype 1b, UniProt Q9WMX2, D1194A)
Construct: 10× stocks of NS3/4A protease enzyme from Bioenza (Mountain View, Calif.); purchased Bioenza (Mountain View, Calif.)
Assay: HCV protease FRET assay (IC50), Example 15
Assay type: biochemical
Details: Inhibition (IC50), HCV D168A, FRET, 30 min pre-incubation at 25° C.
Consider the following compounds; for each one, report its IC50.

Entry `C=CC(=O)NCC(=O)N1C[C@H](OC(=O)N2Cc3cccc(F)c3C2)C[C@H]1C(=O)N[C@]1(C(=O)NS(=O)(=O)C2CC2)C[C@H]1C=C` ; IC50 = 10 to 100 nM

Entry `C=C[C@@H]1C[C@]1(NC(=O)[C@@H]1C[C@@H](OC(=O)N2Cc3cccc(F)c3C2)CN1C(=O)CNC(=O)/C=C/C)C(=O)NS(=O)(=O)C1CC1` ; IC50 = 1000 to 10000 nM

Entry `C=CC(=O)NC[C@H](NC(=O)OC(C)(C)C)C(=O)N1C[C@H](OC(=O)N2Cc3cccc(F)c3C2)C[C@H]1C(=O)N[C@]1(C(=O)NS(=O)(=O)C2CC2)C[C@H]1C=C` ; IC50 = < 10 nM

Entry `C=CC(=O)N(C)C[C@H](NC(=O)OC(C)(C)C)C(=O)N1C[C@H](OC(=O)N2Cc3cccc(F)c3C2)C[C@H]1C(=O)N[C@]1(C(=O)NS(=O)(=O)C2CC2)C[C@H]1C=C` ; IC50 = 10 to 100 nM

---

Target: HCV NS3/4A 1b protease D168A (Hepatitis C virus genotype 1b, UniProt Q9WMX2, D1194A)
Construct: 10× stocks of NS3/4A protease enzyme from Bioenza (Mountain View, Calif.); purchased Bioenza (Mountain View, Calif.)
Test: HCV protease FRET assay (IC50_APP), Example 16
Format: biochemical
Consider the following compounds; for each one, report its IC50.

Entry `C=CC(=O)N[C@@H](C(=O)N1C[C@H](OC(=O)N2Cc3cccc(F)c3C2)C[C@H]1C(=O)N[C@]1(C(=O)NS(=O)(=O)C2CC2)C[C@H]1C=C)C(C)C` ; IC50 = 10 to 100 nM

Entry CC(C)(C)OC(=O)N[C@H]1CN(C(=O)CCl)CCC/C=C\[C@@H]2C[C@@]2(C(=O)NS(=O)(=O)C2CC2)NC(=O)[C@@H]2CC(OC(=O)N3Cc4cccc(F)c4C3)CN2C1=O (some centres unmarked) ; IC50 = 10 to 100 nM

Entry C=C(C)C(=O)C[C@H](NC(=O)OC(C)(C)C)C(=O)N1CC(OC(=O)N2Cc3cccc(F)c3C2)C[C@H]1C(=O)N[C@]1(C(=O)NS(=O)(=O)C2CC2)C[C@H]1CC (some centres unmarked) ; IC50 = 10 to 100 nM

Entry C=C[C@@H]1C[C@]1(NC(=O)[C@@H]1CC(OC(=O)N2Cc3cccc(F)c3C2)CN1C(=O)[C@H](CCC(=O)C(=C)C)NC(=O)OC(C)(C)C)C(=O)NS(=O)(=O)C1CC1 (some centres unmarked) ; IC50 = < 10 nM

Entry CCCCC(NC(=O)[C@@H]1C[C@@H](OC(=O)N2Cc3cccc(F)c3C2)CN1C(=O)[C@H](CCC(=O)C=C(C)C)NC(=O)OC(C)(C)C)C(=O)NS(=O)(=O)C1CC1 (some centres unmarked) ; IC50 = 1000 to 10000 nM

---

Target: HCV NS3/4A 1b protease wild type (Hepatitis C virus genotype 1b, UniProt Q9WMX2)
Construct: 10× stocks of NS3/4A protease enzyme from Bioenza (Mountain View, Calif.); purchased Bioenza (Mountain View, Calif.)
Test: HCV protease FRET assay (IC50_APP), Example 16
Assay type: biochemical
pIC50: −log10 of the molar value.
property: pIC50

Tested system HCV NS3/4A 1b protease wild type (Hepatitis C virus genotype 1b, UniProt Q9WMX2); pIC50 recorded for C=C[C@@H]1C[C@]1(NC(=O)[C@@H]1CC(OC(=O)N2Cc3cccc(F)c3C2)CN1C(=O)[C@H](CC(=O)C(=C)C)NC(=O)OC(C)(C)C)C(=O)NS(=O)(=O)C1CC1 (stereo partly shown) was > 8.00

Tested system HCV NS3/4A 1b protease wild type (Hepatitis C virus genotype 1b, UniProt Q9WMX2); pIC50 recorded for C=C(C)C(=O)C[C@H](NC(=O)OC(C)(C)C)C(=O)N1CC(OC(=O)N2Cc3cccc(F)c3C2)C[C@H]1C(=O)N[C@]1(C(=O)NS(=O)(=O)C2CC2)C[C@H]1CC (stereo partly shown) was > 8.00

Tested system HCV NS3/4A 1b protease wild type (Hepatitis C virus genotype 1b, UniProt Q9WMX2); pIC50 recorded for `C=C[C@@H]1C[C@]1(NC(=O)[C@@H]1C[C@@H](OC(=O)N2Cc3cccc(F)c3C2)CN1C(=O)CNC(=O)c1ccccc1OC(C)=O)C(=O)NS(=O)(=O)C1CC1` was 6.00 to 7.00

Tested system HCV NS3/4A 1b protease wild type (Hepatitis C virus genotype 1b, UniProt Q9WMX2); pIC50 recorded for C=C[C@@H]1C[C@]1(NC(=O)[C@@H]1CC(OC(=O)N2Cc3cccc(F)c3C2)CN1C(=O)[C@H](CCC(=O)/C=C\C(C)(C)C)NC(=O)OC(C)(C)C)C(=O)NS(=O)(=O)C1CC1 (stereo partly shown) was > 8.00

Tested system HCV NS3/4A 1b protease wild type (Hepatitis C virus genotype 1b, UniProt Q9WMX2); pIC50 recorded for `C=CC(=O)NCC(=O)N1C[C@H](OC(=O)N2Cc3cccc(F)c3C2)C[C@H]1C(=O)N[C@]1(C(=O)NS(=O)(=O)C2CC2)C[C@H]1C=C` was > 8.00

Tested system HCV NS3/4A 1b protease wild type (Hepatitis C virus genotype 1b, UniProt Q9WMX2); pIC50 recorded for C=CC(=O)N1CC(C(NC(=O)OC2CCCC2)C(=O)N2CC(OC(=O)N3Cc4cccc(F)c4C3)C[C@H]2C(=O)N[C@]2(C(=O)NS(=O)(=O)C3CC3)C[C@H]2C=C)C1 (stereo partly shown) was > 8.00

Tested system HCV NS3/4A 1b protease wild type (Hepatitis C virus genotype 1b, UniProt Q9WMX2); pIC50 recorded for C=C[C@@H]1C[C@]1(NC(=O)[C@@H]1CC(OC(=O)N2Cc3cccc(F)c3C2)CN1C(=O)[C@H](CCC(=O)/C=C/C)NC(=O)OC(C)(C)C)C(=O)NS(=O)(=O)C1CC1 (stereo partly shown) was > 8.00

Tested system HCV NS3/4A 1b protease wild type (Hepatitis C virus genotype 1b, UniProt Q9WMX2); pIC50 recorded for `C=CC(=O)NC[C@@H]1NC(=O)OCC(C)(C)CCCCc2cccc3c2CN(C3)C(=O)O[C@@H]2C[C@@H](C(=O)N[C@]3(C(=O)NS(=O)(=O)C4CC4)C[C@H]3C=C)N(C2)C1=O` was > 8.00

Tested system HCV NS3/4A 1b protease wild type (Hepatitis C virus genotype 1b, UniProt Q9WMX2); pIC50 recorded for CC[C@@H]1C[C@]1(NC(=O)[C@@H]1CC(OC(=O)N2Cc3cccc(F)c3C2)CN1C(=O)[C@H](CCC(=O)C=C(C)C)NC(=O)OC(C)(C)C)C(=O)NS(=O)(=O)C1CC1 (stereo partly shown) was > 8.00

Tested system HCV NS3/4A 1b protease wild type (Hepatitis C virus genotype 1b, UniProt Q9WMX2); pIC50 recorded for `CC[C@@H]1C[C@]1(NC(=O)[C@@H]1C[C@@H](OC(=O)N2Cc3cccc(F)c3C2)CN1C(=O)[C@H](CC(=O)C=C(C)C)NC(=O)OC(C)(C)C)C(=O)NS(=O)(=O)C1CC1` was > 8.00

Tested system HCV NS3/4A 1b protease wild type (Hepatitis C virus genotype 1b, UniProt Q9WMX2); pIC50 recorded for CCCCC(NC(=O)[C@@H]1C[C@@H](OC(=O)N2Cc3cccc(F)c3C2)CN1C(=O)[C@H](CCC(=O)C=C(C)C)NC(=O)OC(C)(C)C)C(=O)NS(=O)(=O)C1CC1 (stereo partly shown) was > 8.00

Tested system HCV NS3/4A 1b protease wild type (Hepatitis C virus genotype 1b, UniProt Q9WMX2); pIC50 recorded for `C=C[C@@H]1C[C@]1(NC(=O)[C@@H]1C[C@@H](OC(=O)N2Cc3cccc(F)c3C2)CN1C(=O)[C@@H](NC(=O)OC(C)(C)C)[C@@H](C)OC(=O)/C=C/C)C(=O)NS(=O)(=O)C1CC1` was > 8.00

Tested system HCV NS3/4A 1b protease wild type (Hepatitis C virus genotype 1b, UniProt Q9WMX2); pIC50 recorded for C=C[C@@H]1C[C@]1(NC(=O)[C@@H]1CC(OC(=O)N2Cc3cccc(F)c3C2)CN1C(=O)[C@H](CCC(=O)C#CC(C)(C)C)NC(=O)OC(C)(C)C)C(=O)NS(=O)(=O)C1CC1 (stereo partly shown) was > 8.00

Tested system HCV NS3/4A 1b protease wild type (Hepatitis C virus genotype 1b, UniProt Q9WMX2); pIC50 recorded for C=CC(=O)N1CC/C=C\[C@@H]2C[C@@]2(C(=O)NS(=O)(=O)C2CC2)NC(=O)[C@@H]2CC(OC(=O)N3Cc4cccc(F)c4C3)CN2C(=O)[C@@H](NC(=O)OC(C)(C)C)CC1 (stereo partly shown) was > 8.00

Tested system HCV NS3/4A 1b protease wild type (Hepatitis C virus genotype 1b, UniProt Q9WMX2); pIC50 recorded for C=CC(=O)N1CC(C(NC(C)=O)C(=O)N2CC(OC(=O)N3Cc4cccc(F)c4C3)C[C@H]2C(=O)N[C@]2(C(=O)NS(=O)(=O)C3CC3)C[C@H]2C=C)C1 (stereo partly shown) was > 8.00

Tested system HCV NS3/4A 1b protease wild type (Hepatitis C virus genotype 1b, UniProt Q9WMX2); pIC50 recorded for C=C[C@@H]1C[C@]1(NC(=O)[C@@H]1CC(OC(=O)N2Cc3cccc(F)c3C2)CN1C(=O)C(CN(C)C(=O)/C=C/CN(C)C)NC(=O)OC(C)(C)C)C(=O)NS(=O)(=O)C1CC1 (stereo partly shown) was 7.00 to 8.00

Tested system HCV NS3/4A 1b protease wild type (Hepatitis C virus genotype 1b, UniProt Q9WMX2); pIC50 recorded for `C=C[C@@H]1C[C@]1(NC(=O)[C@@H]1C[C@@H](OC(=O)N2Cc3cccc(F)c3C2)CN1C(=O)[C@H](CCC(=O)C=C(C)C)NC(=O)OC(C)(C)C)C(=O)NS(=O)(=O)C1CC1` was > 8.00

Tested system HCV NS3/4A 1b protease wild type (Hepatitis C virus genotype 1b, UniProt Q9WMX2); pIC50 recorded for C=C[C@@H]1C[C@]1(NC(=O)[C@@H]1CC(OC(=O)N2Cc3cccc(F)c3C2)CN1C(=O)[C@H](CC(=O)C=C(C)C)NC(=O)OC(C)(C)C)C(=O)NS(=O)(=O)C1CC1 (stereo partly shown) was > 8.00

Tested system HCV NS3/4A 1b protease wild type (Hepatitis C virus genotype 1b, UniProt Q9WMX2); pIC50 recorded for CC(C)(C)OC(=O)N[C@H]1CN(C(=O)CCl)CCC/C=C\[C@@H]2C[C@@]2(C(=O)N(C(=O)CCl)S(=O)(=O)C2CC2)NC(=O)[C@@H]2CC(OC(=O)N3Cc4cccc(F)c4C3)CN2C1=O (stereo partly shown) was 7.00 to 8.00
